Test system: KB-3-1
Protocol Description: Cytotoxic Profiling of Annotated Libraries Using Quantitative High-Throughput Screening (AID 1296008); note: % is set by controls: 0 for no effect and ±100 for the full control effect; nearly all actives have a fitted effect of over 60% in size
Stated Conditions: Five cell lines viability, CellTiter-Glo ATP luminescence, 48-72 h; hits give low values
Records with an inconclusive call do not appear.
The reader will find reported max response values listed item by item below.
Numeric answer only, unit % assumed.

max response reading for CCCSc1nc(NC2CC2c2ccc(F)c(F)c2)c2nnn(C3CC(OCCO)C(O)C3O)c2n1 (stereo not drawn) : -19.7

max response reading for CC1(C)CC[C@]2(C(=O)O[C@@H]3O[C@H](CO)[C@@H](O)[C@H](O)[C@H]3O)CC[C@]3(C)C(=CCC4[C@@]5(C)C[C@@H](O)[C@H](O)[C@@](C)(CO)C5[C@H](O)C[C@]43C)C2C1 (stereo partly drawn) : -2.95

max response reading for COc1cc([C@@H](O[C@@H]2O[C@H](CO)[C@@H](O)[C@H](O)[C@H]2O)[C@@H]2CO[C@H](c3ccc(O)c(OC)c3)[C@H]2CO)ccc1O : -3.03
